read-out: Cytochrome P450 (CYP1A1), CYP1A1 (gene 1543); assay: LTEA_HepaRG_CYP1A1: Life Technologies and Expression Analysis (LTEA) Assay for Cytochrome P450 (CYP1A1) using HepaRG (AID 2283454); settings: mRNA level, 48 h; actives raise or lower the signal
Active and inactive are the calls of the source. How the source made its calls: active means hit-call score of the fitted dose curve at least 0.9, where 1 is the maximum; inactive means score below 0.9.
# valid calls are active, inactive; nothing else

Given ClC(Cl)=C(c1ccc(Cl)cc1)c1ccc(Cl)cc1 , state the outcome it received in this test.
active

Given Oc1c(Cl)c(Cl)c(Cl)c(Cl)c1Cl , state the outcome it received in this test.
active

Given Clc1ccc(Cl)cc1 , state the outcome it received in this test.
inactive

Given C=CC(N)=O , state the outcome it received in this test.
inactive

Given Cc1cccc([N+](=O)[O-])c1 , state the outcome it received in this test.
active

Given Cc1ccccc1CO[C@@H]1C[C@@]2(C(C)C)CC[C@]1(C)O2 , state the outcome it received in this test.
active

Given CCC(C)c1cc([N+](=O)[O-])cc([N+](=O)[O-])c1O (stereo not drawn) , state the outcome it received in this test.
active

Given CCCCCCCCCC[N+](C)(C)CCCCCCCCCC , state the outcome it received in this test.
active

Given Cc1cc(-c2ccc(N)c(C)c2)ccc1N , state the outcome it received in this test.
active

Given C=CC(=O)NCNC(=O)C=C , state the outcome it received in this test.
active

Given Clc1ccc(C(Cl)(Cl)Cl)cc1 , state the outcome it received in this test.
inactive

Given O=C(NC(=O)c1cc(F)c(F)cc1Cl)Nc1cc(F)ccc1N1CCC(C(=O)O)CC1 , state the outcome it received in this test.
active

Given Clc1ccc(C(c2ccccc2Cl)C(Cl)(Cl)Cl)cc1 (stereo not drawn) , state the outcome it received in this test.
active

----------
target: human Tyrosine Protein Kinase Receptor Tie-2 (Tie2), TEK (gene 7010) (UniProt Q02763); experiment: NVS_ENZ_hTie2: NovaScreen (NVS) Enzymatic Assay for human Tyrosine Protein Kinase Receptor Tie-2 (Tie2) (AID 2283225)
Sequence (Q02763 whole entry, looked up): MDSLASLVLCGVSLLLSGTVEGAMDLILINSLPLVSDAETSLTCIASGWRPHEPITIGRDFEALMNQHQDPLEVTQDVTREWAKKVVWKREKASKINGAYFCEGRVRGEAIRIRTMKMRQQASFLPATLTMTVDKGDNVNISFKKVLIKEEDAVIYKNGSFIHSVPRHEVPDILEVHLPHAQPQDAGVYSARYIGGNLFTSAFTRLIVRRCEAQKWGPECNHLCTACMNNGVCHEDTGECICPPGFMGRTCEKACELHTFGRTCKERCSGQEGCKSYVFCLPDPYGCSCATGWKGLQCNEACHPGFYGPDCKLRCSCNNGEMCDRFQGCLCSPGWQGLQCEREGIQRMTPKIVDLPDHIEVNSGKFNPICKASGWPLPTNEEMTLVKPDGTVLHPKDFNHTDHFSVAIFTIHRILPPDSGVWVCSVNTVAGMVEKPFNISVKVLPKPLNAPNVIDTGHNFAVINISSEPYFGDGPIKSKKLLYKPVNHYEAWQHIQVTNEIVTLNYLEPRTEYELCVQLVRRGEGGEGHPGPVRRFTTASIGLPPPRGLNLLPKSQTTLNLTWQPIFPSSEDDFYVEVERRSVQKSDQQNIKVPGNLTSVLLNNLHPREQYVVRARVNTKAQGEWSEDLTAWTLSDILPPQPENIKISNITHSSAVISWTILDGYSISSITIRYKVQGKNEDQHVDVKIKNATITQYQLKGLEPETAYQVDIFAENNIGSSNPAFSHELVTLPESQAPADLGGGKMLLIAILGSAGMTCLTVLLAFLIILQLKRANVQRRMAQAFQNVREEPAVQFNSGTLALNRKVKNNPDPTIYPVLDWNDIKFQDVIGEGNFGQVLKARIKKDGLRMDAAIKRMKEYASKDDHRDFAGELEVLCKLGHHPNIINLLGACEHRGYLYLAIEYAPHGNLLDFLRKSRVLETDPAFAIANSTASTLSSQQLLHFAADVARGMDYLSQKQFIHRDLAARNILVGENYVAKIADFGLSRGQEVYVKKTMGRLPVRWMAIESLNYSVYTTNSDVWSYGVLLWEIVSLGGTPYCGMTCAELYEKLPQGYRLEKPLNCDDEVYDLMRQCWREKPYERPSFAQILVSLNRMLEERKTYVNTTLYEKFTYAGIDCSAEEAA
Results filed as inconclusive are left out. The source made the active and inactive calls. The calls were made as follows: active = hit-call score of the fitted dose curve at least 0.9, where 1 is the maximum; inconclusive = response in the unintended direction; inactive = score below 0.9.

SMILES_REPR	AC50
Cc1cc2c3c(c1)C(c1ccccc1)=N[C@@H](NC(=O)c1ccncc1)C(=O)N3CC2	inactive
O=S(=O)(O)C(F)(F)C(F)(F)C(F)(F)C(F)(F)C(F)(F)C(F)(F)F	inactive
CCCN(CCC)N=O	inactive
Oc1ccc(C(c2ccc(O)cc2)(C(F)(F)F)C(F)(F)F)cc1	36.3 µM (active)

----------
target: human Vascular Endothelial Growth Factor Receptor 2 (VEGFR2), KDR (gene 3791) (UniProt P35968); assay: NVS_ENZ_hVEGFR2: NovaScreen (NVS) Enzymatic Assay for human Vascular Endothelial Growth Factor Receptor 2 (VEGFR2) (AID 2283230)
Sequence (P35968 whole entry, looked up): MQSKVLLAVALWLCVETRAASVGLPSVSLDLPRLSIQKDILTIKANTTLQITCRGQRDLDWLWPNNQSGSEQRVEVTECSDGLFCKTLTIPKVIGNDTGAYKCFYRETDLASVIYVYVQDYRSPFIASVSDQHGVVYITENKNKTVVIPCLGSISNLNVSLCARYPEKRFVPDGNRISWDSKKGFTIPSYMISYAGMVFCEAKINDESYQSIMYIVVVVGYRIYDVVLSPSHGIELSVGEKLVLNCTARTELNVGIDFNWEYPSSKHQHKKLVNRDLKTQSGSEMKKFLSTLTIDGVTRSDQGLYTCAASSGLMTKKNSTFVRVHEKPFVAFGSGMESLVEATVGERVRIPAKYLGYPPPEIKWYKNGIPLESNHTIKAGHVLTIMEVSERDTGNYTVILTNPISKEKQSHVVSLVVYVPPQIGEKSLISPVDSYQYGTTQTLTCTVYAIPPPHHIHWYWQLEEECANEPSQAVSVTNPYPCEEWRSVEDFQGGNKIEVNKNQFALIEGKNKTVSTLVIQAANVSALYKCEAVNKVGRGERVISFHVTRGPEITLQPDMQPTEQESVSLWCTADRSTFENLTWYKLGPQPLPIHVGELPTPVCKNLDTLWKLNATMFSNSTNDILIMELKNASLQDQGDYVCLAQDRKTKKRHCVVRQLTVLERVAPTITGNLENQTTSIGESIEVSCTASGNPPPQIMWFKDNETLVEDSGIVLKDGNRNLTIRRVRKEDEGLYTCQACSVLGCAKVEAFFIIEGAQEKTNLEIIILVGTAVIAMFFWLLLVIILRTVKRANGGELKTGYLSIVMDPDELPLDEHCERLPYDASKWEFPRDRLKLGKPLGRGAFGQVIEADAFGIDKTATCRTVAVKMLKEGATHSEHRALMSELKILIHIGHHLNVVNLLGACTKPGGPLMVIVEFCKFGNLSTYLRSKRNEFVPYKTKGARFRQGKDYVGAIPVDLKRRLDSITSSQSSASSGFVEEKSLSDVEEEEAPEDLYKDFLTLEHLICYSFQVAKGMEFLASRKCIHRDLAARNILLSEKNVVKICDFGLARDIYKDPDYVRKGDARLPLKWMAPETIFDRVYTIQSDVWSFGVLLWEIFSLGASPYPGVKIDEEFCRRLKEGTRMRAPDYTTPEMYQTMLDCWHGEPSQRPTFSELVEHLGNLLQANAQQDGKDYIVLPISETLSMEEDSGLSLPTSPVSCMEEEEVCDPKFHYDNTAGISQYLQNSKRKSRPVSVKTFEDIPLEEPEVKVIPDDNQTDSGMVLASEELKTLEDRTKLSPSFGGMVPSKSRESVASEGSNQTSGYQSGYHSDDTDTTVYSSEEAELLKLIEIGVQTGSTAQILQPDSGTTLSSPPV
Inconclusive results are not listed. Activity calls are given as the source filed them. Rule for the calls: active = hit-call score of the fitted dose curve at least 0.9, where 1 is the maximum; inconclusive = response in the unintended direction; inactive = score below 0.9.
ENDPOINT: AC50

Completed entries (count: 4):
MOLECULE	AC50
Clc1ccc(C(c2ccccc2Cl)C(Cl)(Cl)Cl)cc1 (stereo not given)	inactive
CC1=C2C[C@H]3[C@@H](CC=C4C[C@@H](O)CC[C@@]43C)[C@@H]2CC[C@]12O[C@@H]1C[C@H](C)CN[C@H]1[C@H]2C	inactive
CCCN(CCC)N=O	inactive
CCC(C)c1cc([N+](=O)[O-])cc([N+](=O)[O-])c1O (stereo not given)	inactive

--- query ---
Look at this molecule and give its reported AC50. CCCCCCCCCC[N+](C)(C)CCCCCCCCCC
26 µM (active)
